In this section, each of the molecules is paired with its reported pEC50.
biological target: UniProtKB P10276; assay: Transcriptional activation in CV-1 cells expressing human Retinoic acid receptor alpha
Sequence (P10276 whole entry): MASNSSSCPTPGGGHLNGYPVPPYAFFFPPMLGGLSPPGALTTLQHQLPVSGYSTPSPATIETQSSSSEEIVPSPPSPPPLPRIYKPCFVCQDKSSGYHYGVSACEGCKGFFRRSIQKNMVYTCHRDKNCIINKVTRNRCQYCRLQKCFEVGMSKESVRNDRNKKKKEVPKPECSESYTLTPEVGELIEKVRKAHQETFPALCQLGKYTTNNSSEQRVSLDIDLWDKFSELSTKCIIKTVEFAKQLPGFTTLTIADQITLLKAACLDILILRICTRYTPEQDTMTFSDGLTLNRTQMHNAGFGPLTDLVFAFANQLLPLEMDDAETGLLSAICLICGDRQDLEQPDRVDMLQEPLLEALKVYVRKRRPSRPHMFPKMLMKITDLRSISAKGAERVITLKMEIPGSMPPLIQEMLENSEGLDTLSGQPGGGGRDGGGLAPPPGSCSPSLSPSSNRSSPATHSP
pEC50: −log10 of the molar value.

- MOL SMILES: "CCOC(=O)c1ccc(OC(=O)c2ccc3c(c2)C(C)(C)CCN3C)cc1"
  pEC50: 5.95
- MOL SMILES: "CCOC(=O)c1ccc(OC(=O)c2cc3c(cc2C)N(C)CCC3(C)C)cc1"
  pEC50: 6.10
- MOL SMILES: "CCOC(=O)c1ccc(OC(=O)c2ccc3c(c2)C(C)(C)CCN3C(C)C)cc1"
  pEC50: 6.66

* * *

Target: Retinoic acid receptor RXR-gamma (Mus musculus)
Sequence (P28705 whole entry): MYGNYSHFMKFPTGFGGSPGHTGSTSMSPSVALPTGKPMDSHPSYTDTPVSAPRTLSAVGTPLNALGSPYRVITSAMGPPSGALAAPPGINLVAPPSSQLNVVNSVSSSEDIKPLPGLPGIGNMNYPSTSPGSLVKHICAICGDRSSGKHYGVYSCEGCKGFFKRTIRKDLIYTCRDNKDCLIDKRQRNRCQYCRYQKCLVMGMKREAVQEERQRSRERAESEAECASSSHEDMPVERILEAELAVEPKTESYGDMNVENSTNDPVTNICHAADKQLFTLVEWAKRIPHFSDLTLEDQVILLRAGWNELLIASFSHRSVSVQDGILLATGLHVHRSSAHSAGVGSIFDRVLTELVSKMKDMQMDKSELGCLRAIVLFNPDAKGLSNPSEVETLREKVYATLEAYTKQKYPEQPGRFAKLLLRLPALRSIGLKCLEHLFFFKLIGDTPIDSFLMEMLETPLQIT
Test: Transcriptional activation in CV-1 cells expressing Retinoid X receptor RXR gamma
In this section, each of the compounds is paired with its reported EC50.

- MOL SMILES: "CCOC(=O)c1ccc(OC(=O)c2cc3c(cc2C)N(C)CCC3(C)C)cc1"
  EC50: "49 nM"
- MOL SMILES: "CCOC(=O)c1ccc(OC(=O)c2ccc3c(c2)C(C)(C)CCN3C(C)C)cc1"
  EC50: "27 nM"
- MOL SMILES: "CCOC(=O)c1ccc(OC(=O)c2ccc3c(c2)C(C)(C)CCN3C)cc1"
  EC50: "20 nM"

* * *

system: SCC-38; assay: Percent of growth inhibition of Cell line SCC-38(Head and Neck) by the compound; type: functional, Homo sapiens

- MOL SMILES: "CC1=C(/C=C/C(C)=C\\C=C\\C(C)=C\\C(=O)O)C(C)(C)CCC1"
  Inhibition [%]: 24
- MOL SMILES: "CCOC(=O)c1ccc(OC(=O)c2cc3c(cc2C)N(C)CCC3(C)C)cc1"
  Inhibition [%]: 20
- MOL SMILES: "CCOC(=O)c1ccc(OC(=O)c2ccc3c(c2)C(C)(C)CCN3C(C)C)cc1"
  Inhibition [%]: 25
- MOL SMILES: "CCOC(=O)c1ccc(OC(=O)c2ccc3c(c2)C(C)(C)CCN3C)cc1"
  Inhibition [%]: 20

* * *

In this section, each of the molecules is paired with its reported Inhibition.
test system: SCC-2; assay: Percent of growth inhibition of Cell line SCC-2(Head and Neck) by the compound; assay type: functional, Homo sapiens

- MOL SMILES: "CCOC(=O)c1ccc(OC(=O)c2cc3c(cc2C)N(C)CCC3(C)C)cc1"
  Inhibition [%]: 20
- MOL SMILES: "CC1=C(/C=C/C(C)=C\\C=C\\C(C)=C\\C(=O)O)C(C)(C)CCC1"
  Inhibition [%]: 25
- MOL SMILES: "CCOC(=O)c1ccc(OC(=O)c2ccc3c(c2)C(C)(C)CCN3C)cc1"
  Inhibition [%]: 20
- MOL SMILES: "CCOC(=O)c1ccc(OC(=O)c2ccc3c(c2)C(C)(C)CCN3C(C)C)cc1"
  Inhibition [%]: 24
